- assay system: Serine/threonine-protein kinase PAK 1 (Homo sapiens)
- Sequence (Q13153 whole entry): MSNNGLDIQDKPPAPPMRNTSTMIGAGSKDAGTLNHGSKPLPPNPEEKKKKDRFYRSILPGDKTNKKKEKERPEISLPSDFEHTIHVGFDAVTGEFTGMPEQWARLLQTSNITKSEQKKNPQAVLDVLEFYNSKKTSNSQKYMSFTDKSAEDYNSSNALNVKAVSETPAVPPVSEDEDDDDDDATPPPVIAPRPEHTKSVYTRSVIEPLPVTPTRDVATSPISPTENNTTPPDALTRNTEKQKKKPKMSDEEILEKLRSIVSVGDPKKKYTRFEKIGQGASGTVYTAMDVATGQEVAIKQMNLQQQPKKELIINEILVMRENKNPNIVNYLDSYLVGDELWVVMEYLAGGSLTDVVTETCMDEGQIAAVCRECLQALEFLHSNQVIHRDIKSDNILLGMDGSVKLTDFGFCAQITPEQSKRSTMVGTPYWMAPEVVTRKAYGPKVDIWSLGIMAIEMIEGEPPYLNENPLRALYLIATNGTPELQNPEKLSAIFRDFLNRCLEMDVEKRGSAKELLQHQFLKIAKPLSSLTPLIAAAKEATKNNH
pIC50: −log10 of the molar value.
The label depends only on pIC50: 1.0 if it is at least 5, 0.0 if it is smaller.

Q) Kindly determine if pIC50 recorded for "O=C(NC1CCN(c2ncnc3[nH]ncc23)CC1)c1ccc(C(F)(F)F)cc1" is above or exactly 5.
A) 1.0

Q) Kindly determine if pIC50 recorded for "O=C(Nc1ccc(C(F)(F)F)cc1)NC1CCN(c2ncnc3[nH]ncc23)CC1" is above or exactly 5.
A) 1.0

Q) Kindly determine if pIC50 recorded for "O=C(Nc1cccc(Cl)c1)NC1CCN(c2ncnc3[nH]ncc23)CC1" is above or exactly 5.
A) 1.0

Q) Kindly determine if pIC50 recorded for "S=C(Nc1ccccc1Cl)N1CCC(Nc2ncnc3[nH]ncc23)CC1" is above or exactly 5.
A) 1.0

Q) Kindly determine if pIC50 recorded for "O=C(NC1CCN(c2ncnc3[nH]ncc23)CC1)c1ccc(Br)cc1" is above or exactly 5.
A) 0.0

Q) Kindly determine if pIC50 recorded for "COc1ccc(NC(=S)N2CCC(Nc3ncnc4[nH]ncc34)CC2)cc1" is above or exactly 5.
A) 0.0

Q) Kindly determine if pIC50 recorded for "Cc1cccc(C)c1NC(=O)N1CCC(Nc2ncnc3[nH]ncc23)CC1" is above or exactly 5.
A) 1.0

# credit: ChEMBL document CHEMBL4765282
